test system: L1210 murine leukemia; experiment: Cellular growth inhibition, L1210 (MTT-tetrazolium reduction); type: cell-based; settings: Mus musculus, L1210, 72 h; 3 days continuous exposure; read-out: Cell Line, IC50 L1210
REPORTED ENDPOINT: IC50 (nM)

# annotated cases, reported IC50 shown
Nc1nc(N)c(SCCCc2ccc(C(=O)N[C@@H](CCC(=O)O)C(=O)O)s2)c(=O)[nH]1 ... 40
Nc1nc(N)c(SCCc2ccc(C(=O)N[C@@H](CCC(=O)O)C(=O)O)cc2)c(=O)[nH]1 ... 1500
Nc1nc(N)c(SCC2CCc3cc(C(=O)N[C@@H](CCC(=O)O)C(=O)O)sc3C2)c(=O)[nH]1 (stereo partly drawn) ... 10

A: Nc1nc(N)c(SCCc2ccc(C(=O)N[C@@H](CCC(=O)O)C(=O)O)s2)c(=O)[nH]1
B: Nc1nc(N)c(SCCCc2ccc(C(=O)N[C@@H](CCC(=O)O)C(=O)O)cc2)c(=O)[nH]1
C: Cc1cc(CCCSc2c(N)nc(N)[nH]c2=O)sc1C(=O)N[C@@H](CCC(=O)O)C(=O)O
Q. Ascending sort, IC50. Respond with an ordered listing of the labels, as requested.
A. B, C, A
